These measurements were taken from patent US7507708B2.

Tested on: PANC-1
Test: In vitro cytotoxic activity, SRB assay
Assay type: cell-based, human
Conditions: PANC-1, 48 hours exposure
Reported property: LC50

Here are 2 compounds together with their reported answers.
Compound: C/C=C1\NC(=O)[C@H](Cc2ccccc2)NC(=O)[C@@H](C(C)C)NC(=O)[C@@H]([C@@H](C)CC)NC(=O)[C@H](NC(=O)[C@H](NC(=O)[C@H](CCCN)NC(=O)[C@H]2CCCN2C(=O)[C@H](NC(=O)[C@@H](NC(=O)[C@@H](NC(=O)[C@H](NC(=O)CCCC(C)C)C(C)C)[C@@H](C)O)C(C)C)C(C)C)[C@@H](C)CC)[C@@H](C)OC(=O)[C@H](C(C)C)NC1=O [5-methylhexanoic KF, reference compound]
LC50: 6.07 µM
//
Compound: C/C=C1\NC(=O)[C@H](Cc2ccccc2)NC(=O)[C@@H](C(C)C)NC(=O)[C@@H]([C@@H](C)CC)NC(=O)[C@H](NC(=O)[C@H](NC(=O)[C@H](CCCN)NC(=O)[C@H]2CCCN2C(=O)[C@H](NC(=O)[C@@H](NC(=O)[C@@H](NC(=O)[C@H](NC(=O)CC[C@H](C)CC)C(C)C)[C@@H](C)O)C(C)C)C(C)C)[C@@H](C)CC)[C@@H](C)OC(=O)[C@H](C(C)C)NC1=O
LC50: 4.24 µM

LC50 on PANC-1 for C/C=C1\NC(=O)[C@H](Cc2ccccc2)NC(=O)[C@@H](C(C)C)NC(=O)[C@@H]([C@@H](C)CC)NC(=O)[C@H](NC(=O)[C@H](NC(=O)[C@H](CCCN)NC(=O)[C@H]2CCCN2C(=O)[C@H](NC(=O)[C@@H](NC(=O)[C@@H](NC(=O)[C@H](NC(=O)CC[C@@H](C)CC)C(C)C)[C@@H](C)O)C(C)C)C(C)C)[C@@H](C)CC)[C@@H](C)OC(=O)[C@H](C(C)C)NC1=O is 6.77 µM
